- TESTED_ON: catalytic domain of human PARP14 (Homo sapiens (Human))
- Sequence (Q460N5 1611-1801): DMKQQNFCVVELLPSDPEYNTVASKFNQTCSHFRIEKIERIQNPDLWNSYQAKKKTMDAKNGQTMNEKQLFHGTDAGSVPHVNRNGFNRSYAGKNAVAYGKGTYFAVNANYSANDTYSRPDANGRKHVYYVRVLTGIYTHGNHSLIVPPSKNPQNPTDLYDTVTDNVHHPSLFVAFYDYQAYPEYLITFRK
- ASSAY_NAME: Enzymatic assay for inhibition of PARP14 (DELFIA, auto-modification with biotin-NAD)
- EXPERIMENTAL_CONDITIONS: auto-modification of PARP14 by biotin-NAD, 50 nM PARP14, 3 μM biotin-NAD
pIC50: −log10 of the molar value. Where a name gives a salt, the structure may show the parent alone.
OBSERVABLE: pIC50

Completed entries (count: 5):
molecule=NC(=O)[C@H]1CC[C@H](SCc2nc3cc(OCC4CCC4)cc(F)c3c(=O)[nH]2)CC1 recorded_measurement="5.00 to 6.00"
molecule="CC(Nc1cc2nc(CSC3CCOCC3)[nH]c(=O)c2c(F)c1F)C1CCOCC1 (stereo not drawn)" recorded_measurement="< 5.00"
molecule="O=c1[nH]c(CSC2CCNCC2)nc2cc(NC3CCC(F)(F)C3)cc(F)c12 (stereo not drawn)" recorded_measurement="> 6.00"
molecule="Cc1cccc2c(=O)[nH]c(CSC3CCC(CN(C)C)CC3)nc12 (stereo not drawn) [Example 67, trifluoroacetate]" recorded_measurement="> 6.00"
molecule=O=c1[nH]c(CS[C@H]2CC[C@@H](OC(F)(F)F)CC2)nc2cc(OCC3CCOCC3)cc(F)c12 recorded_measurement="> 6.00"

Then there is this molecule:
# query: pIC50 | item O=c1[nH]c(CSC2CCS(=O)(=O)CC2)nc2cc(NC3CCCC3)cc(F)c12 | system: catalytic domain of human PARP14 (Homo sapiens (Human))
> 6.00
